Recorded MWapp [kDa] (apparent molecular weight, AMW; HSA binding), one value per entry.
ASSAYED TARGET: human serum albumin (Homo sapiens)
Construct: purchased Biowest, Nuaillé, France
Sequence (P02768 25-609): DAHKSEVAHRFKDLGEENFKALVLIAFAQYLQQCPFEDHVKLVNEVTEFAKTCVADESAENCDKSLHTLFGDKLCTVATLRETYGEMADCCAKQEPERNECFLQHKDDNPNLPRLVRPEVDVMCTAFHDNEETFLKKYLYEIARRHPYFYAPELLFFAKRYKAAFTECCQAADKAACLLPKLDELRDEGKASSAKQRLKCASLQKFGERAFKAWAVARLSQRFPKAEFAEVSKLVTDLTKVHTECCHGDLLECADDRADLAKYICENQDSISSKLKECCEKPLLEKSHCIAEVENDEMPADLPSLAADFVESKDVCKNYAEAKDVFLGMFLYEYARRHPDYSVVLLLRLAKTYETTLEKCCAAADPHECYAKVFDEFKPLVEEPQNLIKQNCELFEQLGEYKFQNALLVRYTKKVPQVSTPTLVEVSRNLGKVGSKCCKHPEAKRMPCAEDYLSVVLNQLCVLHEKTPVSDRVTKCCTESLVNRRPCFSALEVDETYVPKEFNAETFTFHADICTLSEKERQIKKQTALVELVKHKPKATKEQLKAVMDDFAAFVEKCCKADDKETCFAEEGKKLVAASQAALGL
TEST NAME: Binding to human serum albumin by albumin mediated size exclusion chromatography (AMSEC)
Assay type: in vitro ADME
EXPERIMENTAL SETUP: size exclusion chromatography with HSA in the mobile phase, 177Lu-labeled
Experimental: Binding of ^177Lu-labeled ligands to HSA was assessed by albumin mediated size exclusion chromatography (AMSEC). […] Under these chromatographic conditions, the retention time of a radioligand (1.0 MBq, 10-20 GBq/μmol) depends on the extent of HSA/ligand interactions and thus, by means of the calibration with the aforementioned set of proteins, can be translated into an AMW (expressed in kDa) as a parameter allowing to quantify the extent of HSA binding. […]
Entry rule: numbers only, all in kDa.

Look over these answered cases.
>  <COMPOUND>
CC(C)(C)[Si](F)(c1ccc(C(=O)NC[C@@H](NC(=O)CC[C@H](C(=O)O)N2CCN(CC(=O)[O-])CCN(CC(=O)[O-])CCN(CC(=O)[O-])CC2)C(=O)N[C@H](CCCCNC(=O)CCC(=O)NCCC[C@@H](NC(=O)CC[C@H](NC(=O)N[C@@H](CCC(=O)O)C(=O)O)C(=O)O)C(=O)O)C(=O)O)cc1)C(C)(C)C.[Lu+3] [[^177Lu, ^19F]rhPSMA-7.1]

>  <ASSAYED TARGET>
human serum albumin (Homo sapiens)

>  <QUANTITATIVE RESULT>
26.3

$$$$
>  <COMPOUND>
O=C([O-])CN1CCN(CC(=O)[O-])CCN(CC(=O)NCC2CCC(C(=O)N[C@@H](Cc3ccc4ccccc4c3)C(=O)NCCCC[C@H](NC(=O)N[C@@H](CCC(=O)O)C(=O)O)C(=O)O)CC2)CCN(CC(=O)[O-])CC1.[177Lu+3] (some centres unmarked) [[^177Lu]PSMA-617]

>  <ASSAYED TARGET>
human serum albumin (Homo sapiens)

>  <QUANTITATIVE RESULT>
13.7

$$$$
>  <COMPOUND>
O=C([O-])CN1CCN(CC(=O)[O-])CCN(C(CCC(=O)N[C@H](Cc2ccc(O)c(I)c2)C(=O)N[C@H](Cc2ccccc2)C(=O)N[C@H](CCCCNC(=O)CCCCCCC(=O)NCCCC[C@H](NC(=O)N[C@@H](CCC(=O)O)C(=O)O)C(=O)O)C(=O)O)C(=O)O)CCN(CC(=O)[O-])CC1.[Lu+3] (some centres unmarked) [[^177Lu]PSMA I&T]

>  <ASSAYED TARGET>
human serum albumin (Homo sapiens)

>  <QUANTITATIVE RESULT>
5.3

$$$$
>  <COMPOUND>
CC(C)(C)[Si](F)(c1ccc(C(=O)NC[C@@H](NC(=O)CC[C@@H](C(=O)O)N2CCN(CC(=O)[O-])CCN(CC(=O)[O-])CCN(CC(=O)[O-])CC2)C(=O)N[C@H](CCCCNC(=O)CCC(=O)NCCC[C@@H](NC(=O)CC[C@H](NC(=O)N[C@@H](CCC(=O)O)C(=O)O)C(=O)O)C(=O)O)C(=O)O)cc1)C(C)(C)C.[Lu+3] [[^177Lu, ^19F]rhPSMA-7.3]

>  <ASSAYED TARGET>
human serum albumin (Homo sapiens)

>  <QUANTITATIVE RESULT>
30.4

$$$$
>  <COMPOUND>
CC(C)(C)[Si]([19F])(c1ccc(C(=O)NC[C@@H](NC(=O)CN2CCN(CC(=O)O)CCN(CC(=O)O)CCN(CC(=O)O)CC2)C(=O)N[C@H](CCCCNC(=O)CCC(=O)NCCC[C@@H](NC(=O)CC[C@H](NC(=O)N[C@@H](CCC(=O)O)C(=O)O)C(=O)O)C(=O)O)C(=O)O)cc1)C(C)(C)C [[^177Lu, ^19F]rhPSMA-10.1, metal not drawn]

>  <ASSAYED TARGET>
human serum albumin (Homo sapiens)

>  <QUANTITATIVE RESULT>
25.1

$$$$
>  <COMPOUND>
CC(C)(C)[Si](F)(c1ccc(C(=O)NC[C@H](NC(=O)CC[C@H](C(=O)O)N2CCN(CC(=O)[O-])CCN(CC(=O)[O-])CCN(CC(=O)[O-])CC2)C(=O)N[C@H](CCCCNC(=O)CCC(=O)NCCC[C@@H](NC(=O)CC[C@H](NC(=O)N[C@@H](CCC(=O)O)C(=O)O)C(=O)O)C(=O)O)C(=O)O)cc1)C(C)(C)C.[Lu+3] [[^177Lu, ^19F]rhPSMA-7.2]

>  <ASSAYED TARGET>
human serum albumin (Homo sapiens)

>  <QUANTITATIVE RESULT>
31.7

$$$$

**Query** Item under review: CC(C)(C)[Si](F)(c1ccc(C(=O)NC[C@H](NC(=O)CC[C@@H](C(=O)O)N2CCN(CC(=O)[O-])CCN(CC(=O)[O-])CCN(CC(=O)[O-])CC2)C(=O)N[C@H](CCCCNC(=O)CCC(=O)NCCC[C@@H](NC(=O)CC[C@H](NC(=O)N[C@@H](CCC(=O)O)C(=O)O)C(=O)O)C(=O)O)C(=O)O)cc1)C(C)(C)C.[Lu+3] [[^177Lu, ^19F]rhPSMA-7.4] . Reported MWapp [kDa] (apparent molecular weight, AMW; HSA binding)?
**Result** 35.7

**Query** Item under review: CC(C)(C)[Si](F)(c1ccc(C(=O)NC[C@H](NC(=O)CN2CCN(CC(=O)[O-])CCN(CC(=O)[O-])CCN(CC(=O)[O-])CC2)C(=O)N[C@H](CCCCNC(=O)CCC(=O)NCCC[C@@H](NC(=O)CC[C@H](NC(=O)N[C@@H](CCC(=O)O)C(=O)O)C(=O)O)C(=O)O)C(=O)O)cc1)C(C)(C)C.[Lu+3] [[^177Lu, ^19F]rhPSMA-10.2] . Reported MWapp [kDa] (apparent molecular weight, AMW; HSA binding)?
**Result** 21.8

* * *

ASSAYED TARGET: PSMA (Homo sapiens)
Construct: endogenous in cells; host or cells: LNCaP cells
Sequence (Q04609 whole entry): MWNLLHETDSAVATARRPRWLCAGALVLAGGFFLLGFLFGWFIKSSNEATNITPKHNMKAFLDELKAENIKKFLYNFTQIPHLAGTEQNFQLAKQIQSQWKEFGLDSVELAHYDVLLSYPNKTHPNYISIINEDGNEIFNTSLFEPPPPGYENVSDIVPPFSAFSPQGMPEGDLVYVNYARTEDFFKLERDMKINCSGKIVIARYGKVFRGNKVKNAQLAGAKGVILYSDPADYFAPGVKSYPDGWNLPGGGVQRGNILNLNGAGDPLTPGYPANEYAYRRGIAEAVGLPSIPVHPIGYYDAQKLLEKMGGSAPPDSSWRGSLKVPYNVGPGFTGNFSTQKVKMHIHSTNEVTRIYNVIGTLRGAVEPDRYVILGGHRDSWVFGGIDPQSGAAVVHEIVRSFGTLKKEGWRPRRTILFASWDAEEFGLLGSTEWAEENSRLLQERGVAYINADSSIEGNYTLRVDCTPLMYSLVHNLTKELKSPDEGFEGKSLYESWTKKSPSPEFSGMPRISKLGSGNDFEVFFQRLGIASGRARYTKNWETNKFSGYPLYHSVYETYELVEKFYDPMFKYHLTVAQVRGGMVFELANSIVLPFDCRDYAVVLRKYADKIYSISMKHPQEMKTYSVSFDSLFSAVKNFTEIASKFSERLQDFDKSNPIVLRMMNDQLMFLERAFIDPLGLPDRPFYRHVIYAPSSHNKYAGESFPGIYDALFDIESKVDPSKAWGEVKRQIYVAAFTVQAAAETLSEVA
TEST NAME: Competitive binding studies on LNCaP cells vs ([125I]BA)KuE (affinity, IC50)
EXPERIMENTAL SETUP: 1 h, 4° C., natLu complexes, n=3
ENDPOINT: IC50 (nM)
Entry rule: numbers only, all in nM.

Look over these answered cases.
>  <COMPOUND>
CC(C)(C)[Si]([19F])(c1ccc(C(=O)NC[C@@H](NC(=O)CN2CCN(CC(=O)O)CCN(CC(=O)O)CCN(CC(=O)O)CC2)C(=O)N[C@H](CCCCNC(=O)CCC(=O)NCCC[C@@H](NC(=O)CC[C@H](NC(=O)N[C@@H](CCC(=O)O)C(=O)O)C(=O)O)C(=O)O)C(=O)O)cc1)C(C)(C)C [[^177Lu, ^19F]rhPSMA-10.1, metal not drawn]

>  <VALUE UNIT>
nM

>  <QUANTITATIVE RESULT>
2.76

$$$$
>  <COMPOUND>
CC(C)(C)[Si](F)(c1ccc(C(=O)NC[C@@H](NC(=O)CC[C@@H](C(=O)O)N2CCN(CC(=O)[O-])CCN(CC(=O)[O-])CCN(CC(=O)[O-])CC2)C(=O)N[C@H](CCCCNC(=O)CCC(=O)NCCC[C@@H](NC(=O)CC[C@H](NC(=O)N[C@@H](CCC(=O)O)C(=O)O)C(=O)O)C(=O)O)C(=O)O)cc1)C(C)(C)C.[Lu+3] [[^177Lu, ^19F]rhPSMA-7.3]

>  <VALUE UNIT>
nM

>  <QUANTITATIVE RESULT>
3.29

$$$$
>  <COMPOUND>
CC(C)(C)[Si](F)(c1ccc(C(=O)NC[C@@H](NC(=O)CC[C@H](C(=O)O)N2CCN(CC(=O)[O-])CCN(CC(=O)[O-])CCN(CC(=O)[O-])CC2)C(=O)N[C@H](CCCCNC(=O)CCC(=O)NCCC[C@@H](NC(=O)CC[C@H](NC(=O)N[C@@H](CCC(=O)O)C(=O)O)C(=O)O)C(=O)O)C(=O)O)cc1)C(C)(C)C.[Lu+3] [[^177Lu, ^19F]rhPSMA-7.1]

>  <VALUE UNIT>
nM

>  <QUANTITATIVE RESULT>
3.11

$$$$
>  <COMPOUND>
O=C([O-])CN1CCN(CC(=O)[O-])CCN(CC(=O)NCC2CCC(C(=O)N[C@@H](Cc3ccc4ccccc4c3)C(=O)NCCCC[C@H](NC(=O)N[C@@H](CCC(=O)O)C(=O)O)C(=O)O)CC2)CCN(CC(=O)[O-])CC1.[177Lu+3] (some centres unmarked) [[^177Lu]PSMA-617]

>  <VALUE UNIT>
nM

>  <QUANTITATIVE RESULT>
3.27

$$$$

Could you now consider this next compound?
**Query** Item under review: CC(C)(C)[Si](F)(c1ccc(C(=O)NC[C@H](NC(=O)CN2CCN(CC(=O)[O-])CCN(CC(=O)[O-])CCN(CC(=O)[O-])CC2)C(=O)N[C@H](CCCCNC(=O)CCC(=O)NCCC[C@@H](NC(=O)CC[C@H](NC(=O)N[C@@H](CCC(=O)O)C(=O)O)C(=O)O)C(=O)O)C(=O)O)cc1)C(C)(C)C.[Lu+3] [[^177Lu, ^19F]rhPSMA-10.2] . Reported IC50?
**Result** 3.61

Data provenance: patent US20240066155A1
